Assay: chemical genetic growth profiling, strain panel (AID 1159580);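 further: tested at 20 µM; growth read once vehicle control cultures reached saturation at 30 °C; lower values mean less growth of the strain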
Details: S. cerevisiae deletion strains, growth OD, locus YEL037C, strain rad23
Among all 5,500 compounds or so, about 2,000 (36%) were called active. Not shown: some 18% with an inconclusive outcome. No stated cut-off is given here; in the data, active means normalized growth mostly below about 0.91 (no sharp cut-off); inconclusive means no clear call, values can overlap the other calls; inactive means mostly above about 0.92. The list shows a part of the results.
// allowed return values: active, inactive

### Prompt For this compound, state the assay outcome: COc1cc2c(cc1OC)[C@@H]1C(=O)c3ccc4c(c3O[C@@H]1CO2)CC(C(C)C)O4 (stereo not given in full)
### Response inactive

### Prompt Same thing, different compound: `CC(=O)NS(=O)(=O)c1ccc(NC(=O)c2ccccc2C(=O)O)cc1`
### Response inactive

### Prompt Also check `CNS(=O)(=O)c1ccc(NC(=O)c2ccccc2C(=O)O)cc1`
### Response inactive

### Prompt What do you get for `C=C(C)[C@H]1Cc2c(ccc3c2O[C@@H]2COc4cc(OC)c(OC)cc4[C@@H]2C3=O)O1` ?
### Response inactive

### Prompt How about this compound: `CC(=O)[O][Hg][c]1ccccc1`
### Response active
